The measured values listed here are drawn from patent EP4613273A1.

- assay overview: Plasma pharmacokinetic of MIV-701 after single and repeated oral administration of MIV-701 besylate salt in healthy beagle dogs
- Assay type: in vivo
- assay context: dog, plasma MIV-701, oral 10 mg/kg, Day 0 (single)
Structures can show the parent of a compound that is named as a salt.
endpoint label: Cmax at 0 h

compound	reading
CC(C)C[C@H](NC(=O)c1ccc(-c2csc(N3CCN(C)CC3)n2)cc1)C(=O)N1C[C@H](F)[C@H]2OCC(O)(O)[C@H]21 [MIV-701 besylate salt]	139 nM

---

- assay overview: Plasma pharmacokinetic of MIV-701 after single and repeated oral administration of MIV-701 besylate salt in healthy beagle dogs
- Type: in vivo
- assay context: dog, plasma MIV-701, oral 10 mg/kg once daily, Day 13 (repeated)
Where a name gives a salt, the structure may show the parent alone.

molecule	Cmax at 312 h [nM]
CC(C)C[C@H](NC(=O)c1ccc(-c2csc(N3CCN(C)CC3)n2)cc1)C(=O)N1C[C@H](F)[C@H]2OCC(O)(O)[C@H]21 [MIV-701 besylate salt]	130

---

- assay overview: Plasma pharmacokinetic of MIV-701 after single and repeated oral administration of MIV-701 besylate salt in healthy beagle dogs
- Type: in vivo
- assay context: dog, plasma MIV-701, oral 100 mg/kg, Day 0 (single), read-out: AUC(0-infini) (converted)
Structures can show the parent of a compound that is named as a salt.

molecule	output unit	AUC(0-inf)
CC(C)C[C@H](NC(=O)c1ccc(-c2csc(N3CCN(C)CC3)n2)cc1)C(=O)N1C[C@H](F)[C@H]2OCC(O)(O)[C@H]21 [MIV-701 besylate salt]	µM·h	19.9

---

- assay overview: Plasma pharmacokinetic of MIV-701 after single and repeated oral administration of MIV-701 besylate salt in healthy beagle dogs
- Type: in vivo
- assay context: dog, plasma MIV-701, oral 10 mg/kg once daily, Day 13 (repeated), read-out: AUC(0-tfinal) (converted)
Structures can show the parent of a compound that is named as a salt.
endpoint label: AUC(0-t) at 312 h

molecule	endpoint label	reading
CC(C)C[C@H](NC(=O)c1ccc(-c2csc(N3CCN(C)CC3)n2)cc1)C(=O)N1C[C@H](F)[C@H]2OCC(O)(O)[C@H]21 [MIV-701 besylate salt]	AUC(0-t) at 312 h	1.84 µM·h

---

- assay overview: Plasma pharmacokinetic of MIV-701 after single and repeated oral administration of MIV-701 besylate salt in healthy cats
- Type: in vivo
- assay context: cat, plasma MIV-701, oral 10 mg/kg once daily, Day 13 (repeated), read-out: T1/2 elimination (converted)
Where a name gives a salt, the structure may show the parent alone.
endpoint label: half-life at 312 h (h)

compound	output unit	reading
CC(C)C[C@H](NC(=O)c1ccc(-c2csc(N3CCN(C)CC3)n2)cc1)C(=O)N1C[C@H](F)[C@H]2OCC(O)(O)[C@H]21 [MIV-701 besylate salt]	h	5.7

---

- assay overview: Plasma pharmacokinetic of MIV-701 after single and repeated oral administration of MIV-701 besylate salt in healthy beagle dogs
- Format: in vivo
- assay context: dog, plasma MIV-701, oral 1 mg/kg, Day 0 (single)
Structures can show the parent of a compound that is named as a salt.
endpoint label: Cmax at 0 h (nM)

molecule	reading
CC(C)C[C@H](NC(=O)c1ccc(-c2csc(N3CCN(C)CC3)n2)cc1)C(=O)N1C[C@H](F)[C@H]2OCC(O)(O)[C@H]21 [MIV-701 besylate salt]	20

---

- assay overview: Plasma pharmacokinetic of MIV-701 after single and repeated oral administration of MIV-701 besylate salt in healthy cats
- Type: in vivo
- assay context: cat, plasma MIV-701, oral 50 mg/kg, Day 0 (single), read-out: AUC(0-infini) (converted)
- Procedure: MIV-701 besylate salt was administered once daily for 14 days to 4 healthy cats at three increasing doses: 2 mg/kg, 10 mg/kg and 50 mg/kg. The three doses were consecutively administered for 14 days with a >5-day washout period between two dose levels. […] A calibration curve (9 points, 3 to 30 000 nM) was obtained by spiking plasma samples from naive cats with appropriate quantities of Compound I. […]
Where a name gives a salt, the structure may show the parent alone.
endpoint label: AUC(0-inf)

compound	reading
CC(C)C[C@H](NC(=O)c1ccc(-c2csc(N3CCN(C)CC3)n2)cc1)C(=O)N1C[C@H](F)[C@H]2OCC(O)(O)[C@H]21 [MIV-701 besylate salt]	34.8 µM·h

---

- assay overview: Plasma pharmacokinetic of MIV-701 after single and repeated oral administration of MIV-701 besylate salt in healthy beagle dogs
- Assay type: in vivo
- assay context: dog, plasma MIV-701, oral 100 mg/kg once daily, Day 13 (repeated), read-out: T1/2 elimination (converted)
Counter-ions that a name gives are not always drawn.

compound	half-life at 312 h (h)
CC(C)C[C@H](NC(=O)c1ccc(-c2csc(N3CCN(C)CC3)n2)cc1)C(=O)N1C[C@H](F)[C@H]2OCC(O)(O)[C@H]21 [MIV-701 besylate salt]	4.8

---

- assay overview: Plasma pharmacokinetic of MIV-701 after single and repeated oral administration of MIV-701 besylate salt in healthy cats
- Assay type: in vivo
- assay context: cat, plasma MIV-701, oral 50 mg/kg, Day 0 (single)
- Experimental: MIV-701 besylate salt was administered once daily for 14 days to 4 healthy cats at three increasing doses: 2 mg/kg, 10 mg/kg and 50 mg/kg. The three doses were consecutively administered for 14 days with a >5-day washout period between two dose levels. […] A calibration curve (9 points, 3 to 30 000 nM) was obtained by spiking plasma samples from naive cats with appropriate quantities of Compound I. […]
Where a name gives a salt, the structure may show the parent alone.

molecule	Cmax / µM
CC(C)C[C@H](NC(=O)c1ccc(-c2csc(N3CCN(C)CC3)n2)cc1)C(=O)N1C[C@H](F)[C@H]2OCC(O)(O)[C@H]21 [MIV-701 besylate salt]	3.89

---

- assay overview: Plasma pharmacokinetic of MIV-701 after single and repeated oral administration of MIV-701 besylate salt in healthy beagle dogs
- Assay type: in vivo
- assay context: dog, plasma MIV-701, oral 1 mg/kg, Day 0 (single)
Where a name gives a salt, the structure may show the parent alone.
endpoint label: Tmax at 0 h

compound	reading
CC(C)C[C@H](NC(=O)c1ccc(-c2csc(N3CCN(C)CC3)n2)cc1)C(=O)N1C[C@H](F)[C@H]2OCC(O)(O)[C@H]21 [MIV-701 besylate salt]	30 min

---

- assay overview: Plasma pharmacokinetic of MIV-701 after single and repeated oral administration of MIV-701 besylate salt in healthy beagle dogs
- Assay type: in vivo
- assay context: dog, plasma MIV-701, oral 100 mg/kg once daily, Day 13 (repeated)
Counter-ions that a name gives are not always drawn.
endpoint label: Tmax at 312 h (h)

compound	output unit	reading
CC(C)C[C@H](NC(=O)c1ccc(-c2csc(N3CCN(C)CC3)n2)cc1)C(=O)N1C[C@H](F)[C@H]2OCC(O)(O)[C@H]21 [MIV-701 besylate salt]	h	1

---

- assay overview: Plasma pharmacokinetic of MIV-701 after single and repeated oral administration of MIV-701 besylate salt in healthy cats
- Type: in vivo
- assay context: cat, plasma MIV-701, oral 2 mg/kg once daily, Day 13 (repeated), read-out: AUC(0-tfinal) (converted)
Structures can show the parent of a compound that is named as a salt.

compound	AUC(0-t) at 312 h / µM·h
CC(C)C[C@H](NC(=O)c1ccc(-c2csc(N3CCN(C)CC3)n2)cc1)C(=O)N1C[C@H](F)[C@H]2OCC(O)(O)[C@H]21 [MIV-701 besylate salt]	0.972

---

- assay overview: Plasma pharmacokinetic of MIV-701 after single and repeated oral administration of MIV-701 besylate salt in healthy beagle dogs
- Type: in vivo
- assay context: dog, plasma MIV-701, oral 100 mg/kg, Day 0 (single)
Where a name gives a salt, the structure may show the parent alone.
endpoint label: Tmax at 0 h (h)

compound	reading
CC(C)C[C@H](NC(=O)c1ccc(-c2csc(N3CCN(C)CC3)n2)cc1)C(=O)N1C[C@H](F)[C@H]2OCC(O)(O)[C@H]21 [MIV-701 besylate salt]	8

---

- assay overview: Plasma pharmacokinetic of MIV-701 after single and repeated oral administration of MIV-701 besylate salt in healthy beagle dogs
- Format: in vivo
- assay context: dog, plasma MIV-701, oral 1 mg/kg once daily, Day 13 (repeated), read-out: T1/2 elimination (converted)
Counter-ions that a name gives are not always drawn.
endpoint label: half-life at 312 h (h)

compound	output unit	reading
CC(C)C[C@H](NC(=O)c1ccc(-c2csc(N3CCN(C)CC3)n2)cc1)C(=O)N1C[C@H](F)[C@H]2OCC(O)(O)[C@H]21 [MIV-701 besylate salt]	h	8.6

---

- assay overview: Plasma pharmacokinetic of MIV-701 after single and repeated oral administration of MIV-701 besylate salt in healthy beagle dogs
- Type: in vivo
- assay context: dog, plasma MIV-701, oral 10 mg/kg, Day 0 (single), read-out: AUC(0-infini) (converted)
Where a name gives a salt, the structure may show the parent alone.

compound	AUC(0-inf), µM·h
CC(C)C[C@H](NC(=O)c1ccc(-c2csc(N3CCN(C)CC3)n2)cc1)C(=O)N1C[C@H](F)[C@H]2OCC(O)(O)[C@H]21 [MIV-701 besylate salt]	1.38
